biological target: estrogen receptor (Rattus norvegicus); construct: from tissue; host or cells: uterus of matured female rat, homogenate supernatant (105,000 x G); assay: estrogen receptor affinity by exchange curve method ([3H]-estradiol displacement, membrane specimen from rat uterus); type: binding; details: IC50, evaluated sample itself (bisphenols, phenols); concentration necessary to exchange 50% of estrogen bound receptor
pIC50: −log10 of the molar value.
Collected pIC50 values appear next to each entry.

Some molecules with recorded pIC50:
Exam item: Notebook entry, estrogen receptor (Rattus norvegicus) assay: pIC50 of CC(C)(c1ccc(O)cc1)c1cccc(C(C)(C)c2ccc(O)cc2)c1 = ?
Marked response: > 6.54

Exam item: Could you share what pIC50 was measured for Oc1ccc(C(c2ccccc2)(c2ccccc2)c2ccc(O)cc2)cc1 [BPBP, bis(4-hydroxyphenyl)diphenyl methane] , tested on estrogen receptor (Rattus norvegicus)?
Marked response: 5.19

Exam item: GET /values?readout=pIC50&system=estrogen receptor (Rattus norvegicus)&item= C=C(CC(C)(C)c1ccc(O)cc1)c1ccc(O)cc1
Marked response: > 6.43

Exam item: Give pIC50 (estrogen receptor (Rattus norvegicus)) of the following molecule: CC1CC(C)(C)CC(c2ccc(O)cc2)(c2ccc(O)cc2)C1 (centres unmarked)
Marked response: > 6.49

Exam item: Find pIC50 (estrogen receptor (Rattus norvegicus)) for the entry Oc1ccc(C2(c3ccc(O)cc3)CCCCC2)cc1 [BPZ, 1,1-bis(4-hydroxyphenyl) cyclohexane]
Marked response: > 6.43

Exam item: Write down the reported pIC50 of Cc1cc(C2(c3ccc(O)c(C)c3)c3ccccc3-c3ccccc32)ccc1O , test system: estrogen receptor (Rattus norvegicus).
Marked response: < 3.58

Next:
Exam item: What is its pIC50 for estrogen receptor (Rattus norvegicus)? Entry: CC(C)(C)c1ccc(O)cc1
Marked response: 3.76

Exam item: Form entry - test system: estrogen receptor (Rattus norvegicus); read-out: pIC50; molecule: CCCCCCCCCc1ccc(O)cc1
Marked response: 5.39

----------
Target: estrogen receptor (Rattus norvegicus, UniProt P06211)
Construct: from tissue; host or cells: uterus of matured female rat, homogenate supernatant (105,000 x G)
Sequence (P06211 whole entry): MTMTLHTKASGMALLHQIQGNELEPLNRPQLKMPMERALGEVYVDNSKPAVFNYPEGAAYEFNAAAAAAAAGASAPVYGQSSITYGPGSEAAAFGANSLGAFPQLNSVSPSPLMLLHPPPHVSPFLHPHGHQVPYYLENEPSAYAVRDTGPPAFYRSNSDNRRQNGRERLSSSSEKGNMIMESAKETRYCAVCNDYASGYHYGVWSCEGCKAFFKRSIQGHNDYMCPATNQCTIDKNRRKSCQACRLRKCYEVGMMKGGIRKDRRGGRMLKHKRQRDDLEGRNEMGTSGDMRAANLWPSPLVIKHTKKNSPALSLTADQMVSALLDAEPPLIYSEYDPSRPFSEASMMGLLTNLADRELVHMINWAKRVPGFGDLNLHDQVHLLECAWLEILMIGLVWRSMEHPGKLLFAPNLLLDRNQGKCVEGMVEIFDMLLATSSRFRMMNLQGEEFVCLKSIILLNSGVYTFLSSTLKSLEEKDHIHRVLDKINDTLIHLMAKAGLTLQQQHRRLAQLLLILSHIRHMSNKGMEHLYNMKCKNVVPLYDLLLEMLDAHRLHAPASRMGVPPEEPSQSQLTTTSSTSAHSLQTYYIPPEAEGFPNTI
Experiment: estrogen receptor affinity by exchange curve method ([3H]-estradiol displacement, membrane specimen from rat uterus)
Type: binding
Conditions: evaluated sample itself (bisphenols, phenols); concentration necessary to exchange 50% of estrogen bound receptor; read-out: IC50 (converted)
Description: The smaller the numeral value, the higher is affinity between a chemical substance and estrogen receptor, i.e., the higher is so-called endocrine disruptor. […] 1 ml of the above-prepared supernatant liquid of homoginate containing estrogen receptor was added to each tube and softly stirred and then each tube was capped to incubate at 4 °C for 20 hours. […] Each the glass filter paper was dried and then each radioactivity was measured with a liquid scintillation counter.
reportedProperty: IC50

Recorded IC50, per entry:
Exam item: Which IC50 reading was recorded for the compound Oc1ccc(C2(c3ccc(O)cc3)c3ccccc3-c3ccccc32)cc1 [BPFL, 9,9-bis(4-hydroxyphenyl) fluorene] ?
Marked response: < 8.85 µM

Exam item: Please give the measured IC50 for this compound: Cc1cc(C2(c3cc(C)c(O)c(C)c3)c3ccccc3-c3ccccc32)cc(C)c1O [BXFL]
Marked response: < 4.18 µM

Exam item: Fill blank: measured IC50 of the compound Oc1ccc(C(c2ccc(O)cc2)(C(F)(F)F)C(F)(F)F)cc1 [BPAF] is ____.
Marked response: < 0.297 µM

Continuing:
Exam item: // query IC50 value for entry Oc1ccc(Sc2ccc(O)cc2)cc1 [TDP, bis(4-hydroxyphenyl) sulfide]
Marked response: < 0.458 µM
